MEASUREMENT_NOTES: Acute toxicity in ip dosed rat
Type: organism-based
CONDITION_LABEL: in vivo
RECORDED_ENDPOINT: LD50 (mg/kg)

1) Clc1ccc(CCC(Cn2ccnc2)Sc2c(Cl)cccc2Cl)cc1.O=[N+]([O-])O (stereo unspecified) [BUTOCONAZOLE NITRATE] | 940

----------
MEASUREMENT_NOTES: Acute toxicity in po dosed mouse
Format: organism-based
CONDITION_LABEL: in vivo
RECORDED_ENDPOINT: LD50

1) Clc1ccc(CCC(Cn2ccnc2)Sc2c(Cl)cccc2Cl)cc1.O=[N+]([O-])O (stereo unspecified) [BUTOCONAZOLE NITRATE] | > 3200 mg/kg
